Reported values of protein stability index for individual entries
B1: RHOBTB2 (parent)
chain: NQEITKAFHVRRTNRVKECLAKGT

# Variants of: B1
# protocol-notes: protein stability index of a GFP-peptide fusion (GPS, HEK-293T) (PSI 1-6); higher = more stable;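 note: lentivirally expressed fusions sorted by FACS into six bins by GFP to DsRed ratio, PSI derived from sequencing read proportions per bin multiplied by bin number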
# condition: c terminus: a fixed tail appended
measure: protein stability index

- NQEITKAWHVRRTNRVKECLAKGT: 2.94
- NQEITKAFHVRRTNRVKECLAKNT: 3.02
- NQEITFAFHVRRTNRVKECLAKGT: 2.97
- NQEITKAFHVRRTNRVKECLAKQT: 2.99
- NQEITKAFHVRRTNRVKECLASGT: 3.86
- NQEITKAFHDRRTNRVKECLAKGT: 4.25
- NQEITLAFHVRRTNRVKECLAKGT: 2.84
- NQEITKAFEVRRTNRVKECLAKGT: 4.58
- NQEITKAKHVRRTNRVKECLAKGT: 4.15
- NHEITKAFHVRRTNRVKECLAKGT: 3.53
- NQEITKAFHVRRTNRVKECLAKGM: 2.86
